The reported measurements were obtained from paper PMC12366332.

Known Phytotoxicity: diameter of the lesion of a selection of compounds
Test system: tobacco leaves
Conditions: 150 µM; after 48 h
Reply with just the number (in mm).

>  <COMPOUND>
CCCCCC(=O)NCCCC[C@H](NC(=O)[C@H](Cc1ccc(O)cc1)NC(=O)[C@H](CCCCN)NC(=O)[C@H](CC(C)C)NC(=O)[C@@H](NC(=O)[C@H](CCCCN)NC(=O)[C@H](CCCCN)NC(=O)[C@@H](Cc1ccccc1)NC(=O)[C@H](CC(C)C)NC(=O)[C@H](CCCCN)NC(=O)[C@H](CCCCN)NC(C)=O)[C@@H](C)CC)C(N)=O [BP495, Ac-KKLfKKILKYK(COC5H11)-NH2]

>  <RECORDED METRIC>
Phytotoxicity: diameter of the lesion

>  <MEASUREMENT>
6

$$$$
>  <COMPOUND>
CCCC(=O)NCCCC[C@H](NC(=O)[C@H](CCCCN)NC(=O)[C@H](CCCCN)NC(=O)[C@@H](Cc1ccccc1)NC(=O)[C@H](CC(C)C)NC(=O)[C@H](CCCCN)NC(=O)[C@H](CCCCN)NC(C)=O)C(=O)N[C@@H](CC(C)C)C(=O)N[C@@H](CCCCN)C(=O)N[C@@H](Cc1ccc(O)cc1)C(=O)N[C@@H](CC(C)C)C(N)=O [BP548, Ac-KKLfKKK(COC3H7)LKYL-NH2]

>  <RECORDED METRIC>
Phytotoxicity: diameter of the lesion

>  <MEASUREMENT>
6

$$$$

Field request: Phytotoxicity: diameter of the lesion | item: CCCCCCCCCCCC(=O)NCCCC[C@H](NC(=O)[C@@H](NC(=O)[C@H](CCCCN)NC(=O)[C@H](CCCCN)NC(=O)[C@@H](Cc1ccccc1)NC(=O)[C@H](CC(C)C)NC(=O)[C@H](CCCCN)NC(=O)[C@H](CCCCN)NC(C)=O)[C@@H](C)CC)C(=O)N[C@@H](CCCCN)C(=O)N[C@@H](Cc1ccc(O)cc1)C(=O)N[C@@H](CC(C)C)C(N)=O [BP490, Ac-KKLfKKIK(COC11H23)KYL-NH2]
6
